B1: glmS ribozyme (parent)
chain: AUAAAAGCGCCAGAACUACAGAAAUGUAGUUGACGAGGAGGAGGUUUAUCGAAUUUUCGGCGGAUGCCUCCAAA

- Variants of: B1
- measurement description: self-cleavage kobs at 160 uM GlcN6P; higher = faster cleavage; RNA array
- condition label: with glucosamine-6-phosphate
Fewer inactive variants are shown than the library holds.
value type: self-cleavage kobs at 160 uM GlcN6P

construct sequence: AUAAAAGCGCGAGAACUACAGAAAUGUAGUUGACGAGGAGGAGGUUUAUCGAAUUUUCGUCGGAUGCCUCCAAA
value type: self-cleavage kobs at 160 uM GlcN6P
value measured: < 1e-05 s⁻¹
--
construct sequence: AUAAAAGGGCCAGAACUACAGAAAUGUAGUUGACGAGGAGGAGGUGUAUCGAAUUUUCGGCGGAUGCCUCCAAA
value type: self-cleavage kobs at 160 uM GlcN6P
value measured: < 1e-05 s⁻¹
--
construct sequence: AUAAAAGCGCCAGAACUACAGAAAUGUAGUUGACGCGGAGAAGGUUUAUCGAAUUUUCGGCGGAUGCCUCCAAA
value type: self-cleavage kobs at 160 uM GlcN6P
value measured: < 1e-05 s⁻¹
--
construct sequence: AUAAAAGGGCCAGAACUACAGAAAUGUAGUUGACGAGGAGGAGGUUUAUCGAAUUUUCGGCGAAUGCCUCCAAA
value type: self-cleavage kobs at 160 uM GlcN6P
value measured: < 1e-05 s⁻¹
--
construct sequence: AUAAAAGGGCCAGAACUACAGAAAUGUAGUUGACGAGGACGAGGUUUACCGAAUUUUCGGAGGAUGCCUCCAAA
value type: self-cleavage kobs at 160 uM GlcN6P
value measured: < 1e-05 s⁻¹
--
construct sequence: AUAAAAGCGCCAGAACUACAGAAAUGUAGUUGACGAGGAGGAGGCUUAUCGAAUUUUAGGCGGAUGCCUCCAAA
value type: self-cleavage kobs at 160 uM GlcN6P
value measured: < 1e-05 s⁻¹
--
construct sequence: AUAAAUGCGCCAGAACUACAGAAAUGUAGUUGACGAGGAGGAGGUUUCUCGAAUUUGCGGCGGAUGCCUCCAAA
value type: self-cleavage kobs at 160 uM GlcN6P
value measured: < 1e-05 s⁻¹
--
construct sequence: AUAAAUGCGCCAGAACUACAGAAAUGUAGUUGACGAGGAGGUGGUUUAUCGAAUUUUCGGGGGAUGCCUCCAAA
value type: self-cleavage kobs at 160 uM GlcN6P
value measured: < 1e-05 s⁻¹
--
construct sequence: AUAAAUGCGGCAGAACUACAGAAAUGUAGUUGACGAGGAGGAGGUUUAUCGAAUUUUCGGCGGAUGCUUCCAAA
value type: self-cleavage kobs at 160 uM GlcN6P
value measured: < 1e-05 s⁻¹
--
construct sequence: AUAAAAGCGCCAGGACUACAGAAAUGUAGUUAACGAGUAGGAGGUUUAUCGAAUUUUCGGCGGAUGCCUCCAAA
value type: self-cleavage kobs at 160 uM GlcN6P
value measured: < 1e-05 s⁻¹
--
construct sequence: AUAAAAGCGCCAGAACUACAGAAAUGUAGUUGACGAGGCGGAGGUUUAUCGAAAUUUCGGCGGAUGCCUCCAAA
value type: self-cleavage kobs at 160 uM GlcN6P
value measured: 0.000483 s⁻¹
--
construct sequence: AUAAAAGCGCCAGACCUACAGAAAUGUAGUUGACGAGGAGGAGGUUUAUCGAAUUUUCGGCGGAUGCCUCCAAA
value type: self-cleavage kobs at 160 uM GlcN6P
value measured: 0.00074 s⁻¹
--
construct sequence: AUAAAAGCGCCAGAACUACAGAAAUGUAGUUGACGAGGAGGAGGUUUAUCGAAUUUUCGGCGGAAGCGUCCAAA
value type: self-cleavage kobs at 160 uM GlcN6P
value measured: 8.12e-05 s⁻¹
--
construct sequence: AUAAAAGCGCCAGAACUACAGAAAUGUAGUUGACGAGGAGGAGGUUUAUUGAAUUGUCGGCGGAUGCCUCCAAA
value type: self-cleavage kobs at 160 uM GlcN6P
value measured: < 1e-05 s⁻¹
--
construct sequence: AUAAAAGCGCCAGAACUACAGAAAUGUAGUUGACGAGGAGGAGGUUUAUCGAAUUUCCGGCGAAUGCCUCCAAA
value type: self-cleavage kobs at 160 uM GlcN6P
value measured: < 1e-05 s⁻¹
--
construct sequence: AUAAAAGCGCCAGAACUACAGAAAUGUAGUUGACGAGGUGGAAGUUUAUCGAAUUUUCGGCGGAUGGCUCCAAA
value type: self-cleavage kobs at 160 uM GlcN6P
value measured: 9.45e-05 s⁻¹
--
construct sequence: AUAAAAGCGCCAGAACUACAGAAAUGUAGUUGACGAGGAGGAGGUUUAUCGAAUUGUCGGCGGGUGCCUCCAAA
value type: self-cleavage kobs at 160 uM GlcN6P
value measured: 0.000896 s⁻¹
--
construct sequence: AUAAAAGCGCCAGAACUACAGAAAUGUAGUUGAGGAGUAGGAGGUUUAUCGAAUUUUCGGCGGAUGCCUCCAAA
value type: self-cleavage kobs at 160 uM GlcN6P
value measured: < 1e-05 s⁻¹
--
construct sequence: AUAAAAGGGCCAGAACUACAGAAAUGUAGUUGACGAGGAGUAGGUUUAUCGAAUUUUCGGCGGAUGCCUCCAAA
value type: self-cleavage kobs at 160 uM GlcN6P
value measured: < 1e-05 s⁻¹
